- TESTED_SYSTEM: human COX-2 (Homo sapiens, UniProt P35354)
- Sequence (P35354 18-604): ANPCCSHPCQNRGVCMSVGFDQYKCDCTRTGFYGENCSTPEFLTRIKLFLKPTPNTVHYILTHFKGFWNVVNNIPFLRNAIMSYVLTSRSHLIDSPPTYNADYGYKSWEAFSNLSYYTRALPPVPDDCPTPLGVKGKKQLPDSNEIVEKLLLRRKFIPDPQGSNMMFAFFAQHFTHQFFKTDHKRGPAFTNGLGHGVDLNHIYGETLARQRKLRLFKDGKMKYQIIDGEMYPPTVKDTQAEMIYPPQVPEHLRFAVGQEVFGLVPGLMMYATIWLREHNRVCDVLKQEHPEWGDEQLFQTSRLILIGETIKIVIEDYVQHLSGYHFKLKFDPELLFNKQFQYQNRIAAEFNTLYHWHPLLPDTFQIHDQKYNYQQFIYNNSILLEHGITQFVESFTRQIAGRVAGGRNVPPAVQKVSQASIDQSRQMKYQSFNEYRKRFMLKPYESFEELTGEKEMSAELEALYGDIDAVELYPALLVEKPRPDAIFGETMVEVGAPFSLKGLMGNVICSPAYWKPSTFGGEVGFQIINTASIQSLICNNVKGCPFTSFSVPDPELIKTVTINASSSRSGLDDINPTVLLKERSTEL
- METHOD_SUMMARY: In vitro COX-2 inhibition assay
- CONDITION_CONTEXT: Selectivity index = COX-1 IC50/COX-2 IC50
Label rule, in plain words: COX-2 SI of 100 and up is 1, under 100 is -1.

Nn1c(SCC(=O)Nc2ccc(F)cc2)nnc1-c1ccc(NC(=O)c2cccnc2)cc1 [Compound 11e] ... 1
O=C(CSc1nnc(-c2ccc(NC(=O)c3cccnc3)cc2)o1)Nc1cccc(Br)c1 ... 1
Nn1c(SCC(=O)Nc2ccccc2Cl)nnc1-c1ccc(NC(=O)c2cccnc2)cc1 [Compound 11g] ... 1
Cc1ccc(C=Nn2c(-c3ccc(NC(=O)c4cccnc4)cc3)n[nH]c2=S)cc1 [Compound 10a] ... 1
Cc1ccc(C)c(NC(=O)CSc2nnc(-c3ccc(NC(=O)c4cccnc4)cc3)n2N)c1 [Compound 11d] ... 1
Nn1c(SCC(=O)Nc2ccc([N+](=O)[O-])cc2)nnc1-c1ccc(NC(=O)c2cccnc2)cc1 [Compound 11b] ... 1
O=C(CSc1nnc(-c2ccc(NC(=O)c3cccnc3)cc2)o1)Nc1ccc([N+](=O)[O-])cc1 ... -1
Cc1ccc(NC(=O)CSc2nnc(-c3ccc(NC(=O)c4cccnc4)cc3)n2N)cc1 [Compound 11c] ... 1

Threshold query (COX-2 SI >= 100) on Cc1ccc(C)c(NC(=O)CSc2nnc(-c3ccc(NC(=O)c4cccnc4)cc3)o2)c1
-1

---

Each record here notes measured pIC50.
- TESTED_SYSTEM: human COX-2 (Homo sapiens, UniProt P35354)
pIC50 (log units): -log10 of the concentration in mol/L.

Recorded pIC50 for O=C(CSc1nnc(-c2ccc(NC(=O)c3cccnc3)cc2)o1)Nc1cccc(Br)c1 , please?
7.10

Recorded pIC50 for Nn1c(SCC(=O)Nc2ccc([N+](=O)[O-])cc2)nnc1-c1ccc(NC(=O)c2cccnc2)cc1 [Compound 11b] , please?
7.10

Recorded pIC50 for Nn1c(SCC(=O)Nc2ccccc2Cl)nnc1-c1ccc(NC(=O)c2cccnc2)cc1 [Compound 11g] , please?
7.10

Recorded pIC50 for Cc1ccc(C)c(NC(=O)CSc2nnc(-c3ccc(NC(=O)c4cccnc4)cc3)n2N)c1 [Compound 11d] , please?
7.10
